# Test system: K4 kissing-loop RNA reporter
# assayProcedure: apparent KD of K4 kissing-loop reporter; higher = weaker reporter binding
# conditionDetails: Eterna round: R107; input ligand: none
The sequences listed here are annotated with their apparent KD of K4 kissing-loop reporter.
Write the answer as a number in µM, unit excluded.

1) AAGGGCUAGGCGGCCGCCACUGGUCGUGUACACAUACAAACCAGUGAUGUUGGUAUUGUAUGCGACAGGACCGGGCCUAGCCGAA [Exclusion - Tryptophan B (Freestyle 28)] : 0.323
2) CUGCCGUGCCAUGGGCCAGUGAUGUUGGAACGAGGACCGGUACGGCCGCCACUCGCUUAGCGUCAAAGGCGUCCCGAAUAGAAAG [theeternabot_exclusion_KL_Trp_A_14] : 0.34

stdin: Please give measured apparent KD of K4 kissing-loop reporter of the following entry: AUGCUUCAGUAAGGAUAUGGAGGCAGAGUGAAGAUUGUCGUGUAACCGAGUUAAGUGAUGUUUGAUCCAGAAGGUACAUGCGUGU [theeternabot_exclusion_KL_FMN_B_15]
stdout: 0.885

----------
# Tested on: MS2 coat protein
# assayProcedure: apparent KD of MS2 coat protein; higher = weaker reporter binding
# conditionDetails: Eterna round: R107; input ligand: theophylline 20 uM
measuredQuantity: apparent KD of MS2 coat protein (nM)
Write the answer as a number in nM, unit excluded.

1. UCUGGUAUGACGGCCGCCACUAGAUCGUGAGAAGCCUGCAUACAUGAGGAUCACCCAUGUCUCACUAGGACCGGGUCAUUCCAAU [theeternabot_sameState_MS2_Trp_B_5] : 105
2. UAUAUAUAUCACGAACUGUGGUGUAUGUCUCGAGGACCGGUACGGCCGCCACUCGCGCGGCCUCACAUGAGGAUCACCCAUGUUG [XTryp A #6] : 73.7

stdin: Please give measured apparent KD of MS2 coat protein of the following entry: AACUGGACCCGUGAUACCAGAGACAUGAGGAUCACCCAUGUACAUGAGGAUCACCCAUGUCUCCCUUGGCAGCACCGCAGGGAGC [Exclusion Theophylline B GF 13]
stdout: 127

----------
# System: K4 kissing-loop RNA reporter
# assayProcedure: apparent KD of K4 kissing-loop reporter; higher = weaker reporter binding
# conditionDetails: Eterna round: R107; input ligand: none
measuredQuantity: apparent KD of K4 kissing-loop reporter (nM)
Write the answer as a number in nM, unit excluded.

1) AAUUACCUAGUGAUGUUGGGAAUAAUAUAACGAGGACCGGUACGGCCGCCACUCGAGGUCCUAAUUAAGAACGCGAAAGCGAAGA [Tryptophan A Exclusion; Euphoria Solution] : 93.1

Would you kindly look at the next entry?
stdin: Under K4 kissing-loop RNA reporter: report apparent KD of K4 kissing-loop reporter of CAAAACGAGUGAUGUUCGGACAACAACGUUAAGGAUAUACUUCUCUGUAGAAGGUAACAGUAUUUAUAUUUCAUCAACGAAAAUG [theeternabot_exclusion_KL_FMN_A_12] .
stdout: 280

----------
# Test system: MS2 coat protein
# assayProcedure: apparent KD of MS2 coat protein; higher = weaker reporter binding
# conditionDetails: Eterna round: R107; input ligand: theophylline 2 mM
The sequences listed here are annotated with their apparent KD of MS2 coat protein.
Write the answer as a number in nM, unit excluded.

stdin: Under MS2 coat protein: report apparent KD of MS2 coat protein of UGGGUACCGACGGCCGCCACUGAAUAUAGACAUGAGGAUCACCCAUGUAGAGAUCCUAGAAUAAACAGGACCGGGUCUGGUGCUA [Exclusion Tryptophane B GF5] .
stdout: 293

stdin: Under MS2 coat protein: report apparent KD of MS2 coat protein of CCAUAGGGUAAAUACGUAAUCAUAUCUGAAGGAGCGUGGAUAUACACAGGUAGGUCGCAGAAUCACAUGAGGAUCACCCAUGUCU [Same State Arginine A GF12] .
stdout: 47.5

stdin: Under MS2 coat protein: report apparent KD of MS2 coat protein of AACGUCUUGUCGGCCGCCACUGUAUGGUGCGUGACAUGAAACAUGAGGAUCACCCAUGUAGCAUGCAGGACCGGGACAGUGCCAA [Beriaran] .
stdout: 11.6

stdin: Under MS2 coat protein: report apparent KD of MS2 coat protein of CUAAGAGCGGCGGCCGCCACUGGUAACCGAGAGGAGGAGCCUCUGACAUGAGGAUCACCCAUGUUCAGGACCGGGUCGUCUUAGA [#06 Same State - Tryptophan B] .
stdout: 74.4

stdin: Under MS2 coat protein: report apparent KD of MS2 coat protein of GUCCUCAGCCGAAGGAGCGCUAGAAGAUGACAUGAGGAUCACCCAUGUGUGUGAUGUGGCUAGCAGGUAGGUCGCGGAGAGGAUU [Exclusion - Arginine B (Freestyle 16)] .
stdout: 28

stdin: Under MS2 coat protein: report apparent KD of MS2 coat protein of CUGGACAUGAGGAUCACCCAUGUAAAUCCUCGAGGACCGGUACGGCCGCCACUCGAACGAGUGGCGCGCGCGCGCGCGCGCGCGC [aIa] .
stdout: 89.5

stdin: Under MS2 coat protein: report apparent KD of MS2 coat protein of UCGGGCAGAGCGGCCGCCACUGUUUGGCAUGCGGAUGAAGGAACAUGAGGAUCACCCAUGUAGAUUAGGACCGGGCUUGCGGAGA [rvcmullin] .
stdout: 23.8

stdin: Under MS2 coat protein: report apparent KD of MS2 coat protein of CAGACUAGGGCGGCCGCCACUGUGGCUACGGUACAUGAGGAUCACCCAUGUUUGUGGUUGAUCUACAGGACCGGGCCCUGGCACG [Orbera] .
stdout: 200

stdin: Under MS2 coat protein: report apparent KD of MS2 coat protein of AAUAAUAACAUGGGUGAAGUCGUACCAUAACGAGGACCGGUACGGCCGCCACUCGAACAUGAGGAUCACCCAUGUAGGUACGACA [M'-T'-T-MS2-T'' - Design 9] .
stdout: 85.2

stdin: Under MS2 coat protein: report apparent KD of MS2 coat protein of CGUCGAAACUGAAGGAGCGAGAUGACAACAUUGGGUCUAACAUGAGGAUCACCCAUGUAAUCUCAGGUAGGUCGCGGUGUCAACA [Exclusion Arginine B GF18] .
stdout: 120

stdin: Under MS2 coat protein: report apparent KD of MS2 coat protein of AACAUGAGGAUCACCCAUGUUAAGUAUGAAGGAGCGUCGGAAACGACAGGUAGGUCGCAUACUUGGCCUUGUACUUCGUGUGUCU [#02 Exclusion - Arginine A] .
stdout: 14.4

stdin: Under MS2 coat protein: report apparent KD of MS2 coat protein of GGUUACUCUACGGCCGCCACUGAUAAAUAAUAAACCUGUACAUAAACAUGAGGAUCACCCAUGUACAGGACCGGGUAGUGUAACC [Tryptophan B 7] .
stdout: 34.7

----------
# System: MS2 coat protein
# assayProcedure: apparent KD of MS2 coat protein; designed switch direction (-1 OFF switch, 1 ON switch): -1; higher = weaker reporter binding
# conditionDetails: input ligand: FMN 200 uM
measuredQuantity: apparent KD of MS2 coat protein (nM)
Write the answer as a number in nM, unit excluded.

stdin: Please give measured apparent KD of MS2 coat protein of the following entry: GCAGCAACUCUUACUAACUAAACAUGAGGAUCACCCAUGUCUCAGGAUAUGGUCUGGAUUACAGGCCAGAAGGGAGAAAGCUGC [Eli exng3 - 038] (Eterna round: R96, puzzle: Exclusion NG 3)
stdout: 15.6

stdin: Please give measured apparent KD of MS2 coat protein of the following entry: AAAACGUGAGGAUAUACUGUGAGAUCUCAAGGUACGUUAAGACAUGAGGAUCACCCAUGUAGAAGGCGCCAAAA [Eternabot (Original) Solution 15] (Eterna round: R97, puzzle: Exclusion 2)
stdout: 57.3

stdin: Please give measured apparent KD of MS2 coat protein of the following entry: AUAAUGUCAGGAUAUCAGAAGUUUAACUUCGGUUAAACUUCUGAGAAGGGACAUGAGGAUCACCCAUGUGAUUA [E4/3-B1] (Eterna round: R97, puzzle: Exclusion 4)
stdout: 109

----------
# Test system: K4 kissing-loop RNA reporter;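 note: bound reporter read as fluorescence of individual clusters on recovered sequencing chips by microscopy, with normalized cluster intensities fitted with a binding model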
# assayProcedure: apparent KD of K4 kissing-loop reporter; higher = weaker reporter binding
# conditionDetails: Eterna round: R107; input ligand: FMN 200 uM
The sequences listed here are annotated with their apparent KD of K4 kissing-loop reporter.

Answered examples (10):
1. ACCUACCAUUAGUGAUGUUAAUGGACGGAAGGAGCGCGGAUAUCUGCAGGUAGGUCGCCGAAGGCUAGACAUUGUCUAGCCAUUA [AK1 SS Arginine A] : 0.149 µM
2. UACACGACUCGUGUAAACCGAGGUAACAGGCAGGAUAUGUAACGGAACAGAAGGGCCAUGUUGCGUGUCCAGUGAUGUUGGAUGC [Vetedile] : 0.17 µM
3. GGAUAGGAUAGAGGAUAUGGACUAGGCAAGAAUAACUUGUCUAGUAAAUCCAUGAGGAGUGAUGUUCCAGAAGGCUGUCCUAUCG [MatMod 3 - Jieux - Exclusion - FMN B] : 0.514 µM
4. CACUUACGUAGUGAUGUUACGAUCUCUGAUACCAGACAACUCUAAGUCCCUUGGCAGCAGUCAUUUUGCUUAGUAUUUACUCAAA [JR_ExcTheophyA_Sub016] : 0.679 µM
5. UAGGGCAUCGCAGGAUAUCCUGCUUAACGUUGGAUUCCAGUGAUGUUGGAAAGCCGGCCUAGGGUAGGAGAAGGGCGGACUUGAA [Riteteve] : 0.16 µM
6. CGGAUGUAGUGAUGUUAUAUUAGAUGUAGACGAGGACCGGUACGGCCGCCACUCGUAACGGCUGCUAGCGCGUUGCGAGGUGUGC [ExTryptoA.Cl] : 0.642 µM
7. ACCAUCAAAGAUGGCCAGGACUCAACUGAUACCAGAGUGGAAACACUCCCUUGGCAGCAGGUGAGUGAUGUUCACGAGUCCUGGA [Omel KL Theo A SS B v8] : 0.942 µM
8. GUGGCGACGCAAGGAUAUGGGUGCUAGUGAUGUUAGCCUUUGCUCCAUGUCACGUGGUCUGCACACCCAGAAGGUGCGGGAAGAU [theeternabot_exclusion_KL_FMN_B_9] : 0.482 µM
9. GCAGGACGAGGAGGAGGAUGAAUUACUGAAGGAGCGCAUAUUGUUGCAGGUAGGUCGCGGUAAACAAGUAUAGUGAUGUUAUAUC [SSArgA.O] : 0.77 µM
10. UGCUGUCAAUAAGAUACCAGUUGGACUGAGUGAUGUUCAUCCAUUAUAUCUAUUCUGCUUAACCCUUGGCAGCUUGAUGACGUUU [theeternabot_exclusion_KL_Theo_B_6] : 0.174 µM

stdin: Please give measured apparent KD of K4 kissing-loop reporter of the following entry: GCAGGAUAGCGCGGUGCAGUGAUGUUGCACCGAGGACCGGUACGGCCGCCACUCGCUUAGAUAUCGUGUGAUGGGUAUGUCUAGA [theeternabot_exclusion_KL_Trp_A_8]
stdout: 0.116 µM

stdin: Please give measured apparent KD of K4 kissing-loop reporter of the following entry: CUGCCGUGCCAUGGGCCAGUGAUGUUGGAACGAGGACCGGUACGGCCGCCACUCGCUUAGCGUCAAAGGCGUCCCGAAUAGAAAG [theeternabot_exclusion_KL_Trp_A_14]
stdout: 0.374 µM

Entry source: the supplement of paper PMC9170038
